target: proteinase K (Parengyodontium album, UniProt P06873); assay: Proteolytic stability against proteinase K, followed by LC/MS; settings: isolated enzyme proteinase k
Sequence (P06873 106-384): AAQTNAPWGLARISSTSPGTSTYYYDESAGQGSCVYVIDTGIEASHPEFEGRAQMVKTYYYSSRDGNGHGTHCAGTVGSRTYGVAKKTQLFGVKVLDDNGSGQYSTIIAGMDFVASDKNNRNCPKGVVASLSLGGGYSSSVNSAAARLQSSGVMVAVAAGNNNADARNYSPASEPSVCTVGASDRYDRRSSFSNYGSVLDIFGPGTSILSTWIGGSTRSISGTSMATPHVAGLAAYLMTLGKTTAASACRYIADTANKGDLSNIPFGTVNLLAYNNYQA
Non-standard residues stand in square brackets, D forms with d. Residues, ends and D or L forms follow the SMILES beside them. *: point of attachment. Acetyl(1-pyrenyl) = O=C(Cc1ccc2ccc3cccc4ccc1c2c34)*; pY = N[C@@H](Cc1ccc(OP(=O)(O)O)cc1)C(=O)O
Readout Name: half-life at 1 mM (min)

compound="O=C(O)CC[C@H](NC(=O)Cc1ccc2ccc3cccc4ccc1c2c34)C(=O)N[C@@H](CCC(=O)O)C(=O)N[C@@H](CCC(=O)O)C(=O)N[C@@H](CCC(=O)O)C(=O)N[C@@H](CCC(=O)O)C(=O)N[C@@H](Cc1ccc(OP(=O)(O)O)cc1)C(=O)O [compound 1, Pyn-(L)-EEEEEpY] ({Acetyl(1-pyrenyl)}-EEEEE[pY]-OH)" measured=10

====

Reported values of half-life for individual entries
test system: alkaline phosphatase (ALP); assay: in vitro; details: alkaline phosphatase (ALP, 1 U/mL)
Non-standard residues stand in square brackets, D forms with d. Residues, ends and D or L forms follow the SMILES beside them. *: point of attachment. Acetyl(1-pyrenyl) = O=C(Cc1ccc2ccc3cccc4ccc1c2c34)*; d(pY) = N[C@H](Cc1ccc(OP(=O)(O)O)cc1)C(=O)O; pY = N[C@@H](Cc1ccc(OP(=O)(O)O)cc1)C(=O)O
Readout Name: half-life (min)

compound="O=C(O)CC[C@@H](NC(=O)Cc1ccc2ccc3cccc4ccc1c2c34)C(=O)N[C@H](CCC(=O)O)C(=O)N[C@H](CCC(=O)O)C(=O)N[C@H](CCC(=O)O)C(=O)N[C@H](CCC(=O)O)C(=O)N[C@H](Cc1ccc(OP(=O)(O)O)cc1)C(=O)O [compound 3, Pyn-(D)-eeeeepy] ({Acetyl(1-pyrenyl)}-[dE][dE][dE][dE][dE][d(pY)]-OH)" measured=9.6
compound="O=C(O)CC[C@H](NC(=O)Cc1ccc2ccc3cccc4ccc1c2c34)C(=O)N[C@@H](CCC(=O)O)C(=O)N[C@@H](CCC(=O)O)C(=O)N[C@@H](CCC(=O)O)C(=O)N[C@@H](CCC(=O)O)C(=O)N[C@@H](Cc1ccc(OP(=O)(O)O)cc1)C(=O)O [compound 1, Pyn-(L)-EEEEEpY] ({Acetyl(1-pyrenyl)}-EEEEE[pY]-OH)" measured=4.7

Data provenance is paper PMC12593409.
